# runDescription: hypotensive activity in spontaneously hypertensive rats, mean arterial blood pressure (method of Chan and Poorvin)
# Type: in vivo
# appliedConditions: gavage, 100 mg/kg or less, two doses 24 hours apart; measured 28 hours after initial dose; average MABP of rats used 160±1.5 mm Hg; (no. of rats) in parentheses
MABP in mm Hg overview
Field note: include the unit after the figure.

>  <compound>
CC(CCNC(=O)c1ccc(Cl)nc1)n1ccnc1 (stereo not shown)

>  <MABP in mm Hg>
111 mm Hg

$$$$
>  <compound>
Cc1cn(CCCNC(=O)c2cccnc2)cn1

>  <MABP in mm Hg>
123 mm Hg

$$$$
>  <compound>
CC(CNC(=O)c1ccc(Cl)nc1)Cn1ccnc1 (stereo not shown)

>  <MABP in mm Hg>
129 mm Hg

$$$$
>  <compound>
O=C(NCCCn1cncn1)c1ccc(Cl)nc1

>  <MABP in mm Hg>
140 mm Hg

$$$$
>  <compound>
O=C(NCCCn1ccnc1)c1ccc(Cl)nc1

>  <MABP in mm Hg>
132 mm Hg

$$$$
>  <compound>
Cc1cn(CCCNC(=O)c2ccc(Cl)nc2)cn1

>  <MABP in mm Hg>
139 mm Hg

$$$$
>  <compound>
O=C(NCCCn1ccnc1)c1ccccn1

>  <MABP in mm Hg>
127 mm Hg

$$$$
>  <compound>
O=C(NCCCn1ccnc1)c1cccnc1

>  <MABP in mm Hg>
138 mm Hg

$$$$
>  <compound>
Cc1cn(CCCNC(=O)c2ccccn2)cn1

>  <MABP in mm Hg>
140 mm Hg

$$$$

Then this compound:
Incoming: For the compound `O=C(NCCCCn1ccnc1)c1ccccn1.O=C(O)/C=C/C(=O)O` , report MABP in mm Hg.
Outgoing: 116 mm Hg

----------
# measuredOn: thromboxane synthetase enzyme (Rattus norvegicus, UniProt P49430)
# Construct: endogenous in cells; host or cells: washed platelets from arterial blood of Okamoto-Aoki spontaneously hypertensive rats (Taconic Farms, Germantown, NY)
# Sequence (P49430 whole entry): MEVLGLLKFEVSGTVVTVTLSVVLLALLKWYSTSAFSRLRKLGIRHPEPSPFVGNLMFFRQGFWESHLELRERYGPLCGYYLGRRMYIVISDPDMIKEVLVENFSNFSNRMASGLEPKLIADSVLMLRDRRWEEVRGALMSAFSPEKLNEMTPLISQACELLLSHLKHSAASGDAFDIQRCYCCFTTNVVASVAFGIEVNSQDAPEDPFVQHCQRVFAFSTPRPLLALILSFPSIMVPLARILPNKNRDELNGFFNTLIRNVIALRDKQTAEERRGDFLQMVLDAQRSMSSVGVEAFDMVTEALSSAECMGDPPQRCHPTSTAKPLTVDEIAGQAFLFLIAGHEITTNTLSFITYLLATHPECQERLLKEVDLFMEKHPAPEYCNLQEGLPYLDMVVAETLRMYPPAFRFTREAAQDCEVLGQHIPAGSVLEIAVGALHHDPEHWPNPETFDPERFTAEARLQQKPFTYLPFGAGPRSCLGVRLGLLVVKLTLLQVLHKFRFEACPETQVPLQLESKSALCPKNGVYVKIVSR
# runDescription: inhibition of thromboxane (TXA2) formation, TXB2 determined by direct radioimmunoassay in washed rat platelets
# Type: cell-based, Okamoto-Aoki spontaneously hypertensive rats (SHR)
# appliedConditions: Dose 10^-4 M; SHR platelets, 10 minutes at 37° C.
# Protocol: The inhibition of thromboxane (TXA2) formation was studied by determining the concentration of thromboxane B2 (TXB2), the stable hydrolysis product of TXA2. Under urethan anesthesia, […] of arterial blood was collected in one ml of 3.2% sodium citrate in a polystyrene tube from Okamoto-Aoki spontaneously hypertensive rats (SHR) (Taconic Farms, Germantown, NY) between 19 and 24 weeks in age. The blood was diluted with 3 ml cold saline and centrifuged at room temperature for 15 minutes at 460 xg. […]
inhibition at 100 µM overview
Give a bare numeral; the unit % is implied.

Sample answers from the record:
>  <compound>
CC(CNC(=O)c1ccc(Cl)nc1)Cn1ccnc1 (stereo not shown)

>  <inhibition at 100 µM [%]>
98

$$$$
>  <compound>
O=C(NCCCCn1ccnc1)c1ccc(Cl)nc1

>  <inhibition at 100 µM [%]>
94

$$$$
>  <compound>
Cc1cn(CCCNC(=O)c2cccnc2Cl)cn1

>  <inhibition at 100 µM [%]>
50

$$$$
>  <compound>
O=C(NCCCn1ccnc1)c1cccnc1Cl

>  <inhibition at 100 µM [%]>
58

$$$$
>  <compound>
O=C(NCCCn1ccnc1-c1ccccc1)c1ccccn1

>  <inhibition at 100 µM [%]>
30

$$$$

Incoming: For the compound `Cc1cn(CCCNC(=O)c2cccnc2)cn1` , report inhibition at 100 µM.
Outgoing: 50

Incoming: For the compound `Cc1cn(CCCNC(=O)c2ccc(Cl)nc2)cn1` , report inhibition at 100 µM.
Outgoing: 86

----------
inhibition at 100 µM overview
# measuredOn: thromboxane synthetase enzyme (Rattus norvegicus)
# Construct: endogenous in cells; host or cells: washed platelets from arterial blood of Okamoto-Aoki spontaneously hypertensive rats (Taconic Farms, Germantown, NY)
# runDescription: inhibition of thromboxane (TXA2) formation, TXB2 determined by direct radioimmunoassay in washed rat platelets
# Format: cell-based, Okamoto-Aoki spontaneously hypertensive rats (SHR)
# appliedConditions: Dose 10^-4 M; SHR platelets, 10 minutes at 37° C.
# Protocol: The inhibition of thromboxane (TXA2) formation was studied by determining the concentration of thromboxane B2 (TXB2), the stable hydrolysis product of TXA2. Under urethan anesthesia, […] of arterial blood was collected in one ml of 3.2% sodium citrate in a polystyrene tube from Okamoto-Aoki spontaneously hypertensive rats (SHR) (Taconic Farms, Germantown, NY) between 19 and 24 weeks in age. The blood was diluted with 3 ml cold saline and centrifuged at room temperature for 15 minutes at 460 xg. […]
Give a bare numeral; the unit % is implied.

Sample answers from the record:
>  <molecule>
Cc1nccn1CCCNC(=O)c1cccnc1Cl

>  <measurementUnit>
%

>  <numericReadout>
38

$$$$
>  <molecule>
CC(CCNC(=O)c1ccc(Cl)nc1)n1ccnc1 (centres unmarked)

>  <measurementUnit>
%

>  <numericReadout>
98

$$$$
>  <molecule>
O=C(NCCCn1ccnc1-c1ccccc1)c1ccc(Cl)nc1

>  <measurementUnit>
%

>  <numericReadout>
56

$$$$

Incoming: For the molecule `O=C(NCCCn1ccnc1)c1ccccn1` , report inhibition at 100 µM.
Outgoing: 59

Incoming: For the molecule `O=C(NCCCn1cncn1)c1ccc(Cl)nc1` , report inhibition at 100 µM.
Outgoing: 67

Incoming: For the molecule `O=C(NCCCn1ccnc1)c1cccnc1` , report inhibition at 100 µM.
Outgoing: 83

----------
# measuredOn: thromboxane synthetase enzyme (Rattus norvegicus)
# Construct: endogenous in cells; host or cells: washed platelets from arterial blood of Okamoto-Aoki spontaneously hypertensive rats (Taconic Farms, Germantown, NY)
# runDescription: inhibition of thromboxane (TXA2) formation, TXB2 determined by direct radioimmunoassay in washed rat platelets
# Format: cell-based, Okamoto-Aoki spontaneously hypertensive rats (SHR)
# appliedConditions: Dose 10^-4 M; SHR platelets, 10 minutes at 37° C.
measurementName: inhibition at 100 µM (%)
Give a bare numeral; the unit % is implied.

Sample answers from the record:
>  <molecule>
O=C(NCCCn1ccnc1)c1ccc(Cl)nc1

>  <measuredOn>
thromboxane synthetase enzyme (Rattus norvegicus)

>  <numericReadout>
88

$$$$
>  <molecule>
Cc1nccn1CCCNC(=O)c1ccc(Cl)nc1

>  <measuredOn>
thromboxane synthetase enzyme (Rattus norvegicus)

>  <numericReadout>
44

$$$$
>  <molecule>
Cc1cn(CCCNC(=O)c2ccccn2)cn1

>  <measuredOn>
thromboxane synthetase enzyme (Rattus norvegicus)

>  <numericReadout>
84

$$$$

Incoming: For the molecule O=C(NCCCCn1ccnc1)c1ccccn1.O=C(O)/C=C/C(=O)O [fumarate] , report inhibition at 100 µM.
Outgoing: 82

Incoming: For the molecule `O=C(NCCCCn1ccnc1)c1cccnc1Cl` , report inhibition at 100 µM.
Outgoing: 90

Origin of the recorded values: patent US4555519A
